Tested on: L. pneumophila serogroup 4
Assay: microbe, parasite or virus in culture
Type: cell-based
Details: Legionella pneumophila
Threshold check on MIC50: strictly below 0.02 mg/L is rule met; on or above 0.02 mg/L is rule not met.

Worked cases, answers included:
Query string: Lab note: confirm whether the reported MIC50 for this compound is below 0.02 mg/L, equality not counting. compound: CC[C@H]1OC(=O)[C@H](C)[C@@H](O[C@H]2C[C@@](C)(OC)[C@@H](O)[C@H](C)O2)[C@H](C)[C@@H](O[C@@H]2O[C@H](C)C[C@H](N(C)C)[C@H]2O)[C@](C)(O)C[C@@H](C)C(=O)[C@H](C)[C@@H](O)[C@]1(C)O
Result string: rule not met

Query string: Lab note: confirm whether the reported MIC50 for this compound is below 0.02 mg/L, equality not counting. compound: CC[C@H]1OC(=O)[C@H](C)[C@@H](O[C@H]2C[C@@](C)(OC)[C@@H](O)[C@H](C)O2)[C@H](C)[C@@H](O[C@@H]2O[C@H](C)C[C@H](N(C)C)[C@H]2O)[C@](C)(O)C[C@@H](C)CN(C)[C@H](C)[C@@H](O)[C@]1(C)O
Result string: rule not met

Query string: Lab note: confirm whether the reported MIC50 for this compound is below 0.02 mg/L, equality not counting. compound: Cc1c(F)c(N2CCNC(C)C2)cc2c1c(=O)c(C(=O)O)cn2C1CC1 (stereo not shown)
Result string: rule met

Query string: Lab note: confirm whether the reported MIC50 for this compound is below 0.02 mg/L, equality not counting. compound: CC1COc2c(N3CCN(C)CC3)c(F)cc3c(=O)c(C(=O)O)cn1c23 (stereo not shown)
Result string: rule not met

Query string: Lab note: confirm whether the reported MIC50 for this compound is below 0.02 mg/L, equality not counting. compound: N[C@@H]1[C@H]2CN(c3nc4c(cc3F)c(=O)c(C(=O)O)cn4-c3ccc(F)cc3F)C[C@@H]12
Result string: rule met

Further cases:
Query string: Lab note: confirm whether the reported MIC50 for this compound is below 0.02 mg/L, equality not counting. compound: C[C@H]1COc2c(N3CCN(C)CC3)c(F)cc3c(=O)c(C(=O)O)cn1c23
Result string: rule met

Query string: Lab note: confirm whether the reported MIC50 for this compound is below 0.02 mg/L, equality not counting. compound: CO/N=C1\CN(c2nc3c(cc2F)c(=O)c(C(=O)O)cn3C2CC2)CC1CN (racemic)
Result string: rule met

Query string: Lab note: confirm whether the reported MIC50 for this compound is below 0.02 mg/L, equality not counting. compound: CO[C@H]1/C=C/O[C@@]2(C)Oc3c(C)c(O)c4c(O)c(c(/C=N/N5CCN(C)CC5)c(O)c4c3C2=O)NC(=O)/C(C)=C\C=C\[C@H](C)[C@H](O)[C@@H](C)[C@@H](O)[C@@H](C)[C@H](OC(C)=O)[C@@H]1C
Result string: rule met

Query string: Lab note: confirm whether the reported MIC50 for this compound is below 0.02 mg/L, equality not counting. compound: COc1c(N2C[C@@H]3CCCN[C@@H]3C2)c(F)cc2c(=O)c(C(=O)O)cn(C3CC3)c12
Result string: rule met

Query string: Lab note: confirm whether the reported MIC50 for this compound is below 0.02 mg/L, equality not counting. compound: CC[C@H]1OC(=O)[C@H](C)[C@@H](O[C@H]2C[C@@](C)(OC)[C@@H](O)[C@H](C)O2)[C@H](C)[C@@H](O[C@@H]2O[C@H](C)C[C@H](N(C)C)[C@H]2O)[C@](C)(OC)C[C@@H](C)C(=O)[C@H](C)[C@@H](O)[C@]1(C)O
Result string: rule not met

# credit: patent US6340689B1
